Target: T1, human TREM2 on the cell surface (human, UniProt Q9NZC2 19-230)
T1 sequence: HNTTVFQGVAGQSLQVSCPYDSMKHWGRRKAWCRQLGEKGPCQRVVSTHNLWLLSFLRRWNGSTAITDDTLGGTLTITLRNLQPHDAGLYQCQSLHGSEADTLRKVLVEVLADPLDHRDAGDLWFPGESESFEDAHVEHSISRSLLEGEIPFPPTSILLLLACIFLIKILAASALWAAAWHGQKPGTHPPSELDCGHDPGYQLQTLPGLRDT
Assay: cell-based or functional assay
For each entry below, report its Survival EC50 (nM), plate coated mAb, human macrophages value.
Give bare numbers, in nM.

Some binders with known Survival EC50 (nM), plate coated mAb, human macrophages results, for comparison:
CL0020205 (antibody, V domains shown, also called Clone CL0020205) VH: EVQLQQSGPVLVKPGASVKMSCKASGYTFTDYYVHWVKQSHGKSLEWIGLINPYTGTTSYNQRFRVKATLTVDKSSSTAYMEVNSLTSEDSAVYYCARSRVYYGSSLFAFWGQGTLVTVSA VL: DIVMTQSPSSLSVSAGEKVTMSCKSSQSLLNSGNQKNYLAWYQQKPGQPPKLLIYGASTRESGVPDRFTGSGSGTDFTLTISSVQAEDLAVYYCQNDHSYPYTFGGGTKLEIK
5.7
CL0020139 (antibody, V domains shown, also called Clone CL0020139) VH: EVQLQQSGPELVKPGASVKMSCKAPGYSFTSYLMNWVKQKPGQGLEWIGYINPYSAGSNYNEKFKDKATLTSDKSSSTAYMELRSLTSEDSAVYFCARSSYRYGFDYWGQGTTLTVSS VL: DIQMTQSSSSFSVSLGDRVTITCKASEDIYNRLAWYQQKPGNAPRLLISGATSLETGVPSRFSGSGSGKDYTLSITSLQTEDVATYSCQQYWSTPWTFGGGTKLEIK
1.8
CL0020313 (antibody, V domains shown, also called Clone CL0020313) VH: QVQLKQSGPGLLQPSQSLSITCTVSGFSLTSYGVHWVRQSPGKGLEWLGVIWSGGITLYNAAFMSRLSITKDNSKSQVFFKMNSLQADDTAIYYCAKVGYGSSSDYWGQGTTLTVSS VL: DVLMTQSPLSLPVSLGDQASFSCRSSQSIVHSNGNTYLEWYLQKPGQSPKLLIYKVSNRFSGVPDRFSGSGSGTDFTLKISRVEAEDLGVYYCFQGSHVPFTFGSGTKLEIK
30.7

Give Survival EC50 (nM), plate coated mAb, human macrophages for each of the items listed below.
1. CL0020113 (antibody, V domains shown, also called Clone CL0020113) VH: QIQLVQSGPELKKPGESLKISCKASGYTFTDYAMQWVKQAPGKGLQYMGWINTQTGKPTYADDFKERFVFSLETSASTAYLKINNLKNDDMATYLCARSYGGEYNWIAYWGQGTLVTVSS VL: DIVMTQTPSSQAVSAGEKVTMNCKSSQSLLYNENKKNYLAWYQQKPGQSPKLLIYWASTRESGVPDRFIGSGSGTDFTLTISSVQAEDLAVYYCQQSYNFPPTFGGGTKLELK
2. CL0020120 (antibody, V domains shown, also called Clone CL0020120) VH: EVQLQQSGPELVRTGASVKISCRASSYSFTDNYIHWVKQTHGRSLEWIGYISGYTGATSYNQKFKGKATFTVDTSSSTAYMQFNSLTSEDSAVYYCARSTMIAPYGMDYWGQGTSVTVSS VL: DIVMTQSHKFMSTSVGDRVNITCKASQDVVTAVAWYQQKPGQSPKLLIYWASTRHTGVPDRFTGSGSGTDFTLTISNVQSEDLADYFCQQYSRYPLTFGAGTKLELK

RESULT:
[24.8, 17.8]

Origin of the recorded values: patent US20220119522A1
